Data provenance is patent US20250154129A1.

assay: Solubility screening of the Varoglutamstat free base (HPLC of mother liquor); format: physicochemical; settings: organic solvent or mixture, thermodynamic from solid; acetone, tetrahydrofuran, methyl-tetrahydrofuran, methyl-ethylketone, 2-pentanone, acetonitrile, dimethylsulfoxide, methanol, ethanol, isopropanol, n-propanol, n-butanol; 20° C.; read-out: excellent solubility in organic solvents

molecule: CCCOc1ccc([C@H]2CNC(=O)N2c2ccc3[nH]cnc3c2)cc1 [Varoglutamstat free base]
solubility: ≥ 30 mg/mL

* * *

assay: pKa of Varoglutamstat (weak base); format: physicochemical

molecule: CCCOc1ccc([C@H]2CNC(=O)N2c2ccc3[nH]cnc3c2)cc1 [Varoglutamstat free base]
pKa: 4.55
